# Test system: MDA-MB-231
# Assay: cells
# Assay type: cell-based
# Condition Label: Homo sapiens; MDA-MB-231, 48 hours exposure, SRB; total growth inhibition (cytostatic effect); read-out: TGI
# Source text: The aim of this assay is to evaluate the in vitro cytostatic (ability to delay or arrest tumor cell growth) or cytotoxic (ability to kill tumor cells) activity of the samples being tested. Evaluation of Cytotoxic Activity Using the SBR Colorimetric Assay A colorimetric type of assay, using sulforhodamine B (SRB) reaction has been adapted for a quantitative measurement of cell growth and viability (following the technique described by Skehan P et al. J. Natl. Cancer Inst. 1990, 82, 1107-1112). […]
Experimental Readout: log10(IC (TGI)) (log10 of the value in µM)
Scale type: logarithmic (base 10). Underlying IC (TGI) unit: µM.

**Q:** For COC1=CC[C@@H]([C@@H](C)/C=C(C)/C=C\C=C/C(=O)N[C@H](C(=O)N/C=C\C[C@H](C/C=C(\C)Cl)O[Si](C)(C)C(C)(C)C)C(C)(C)C)OC1=O [Compound 29a] , what is its reported log10(IC (TGI))?
**A:** 0.45

**Q:** For COC1=CC[C@@H]([C@@H](C)/C=C(C)/C=C\C=C/C(=O)N[C@H](C(=O)N/C=C\C[C@H](O)C/C=C(\C)Cl)C(C)(C)C)OC1=O [(21S)-30a] , what is its reported log10(IC (TGI))?
**A:** -1.67

**Q:** For COC1=CC[C@@H]([C@@H](C)/C=C(C)/C=C\C=C/C(=O)N[C@H](C(=O)N/C=C\C[C@@H](O)C/C=C(\C)Cl)C(C)(C)C)OC1=O [Compound 30a] , what is its reported log10(IC (TGI))?
**A:** -2.03

**Q:** For COC1=CC[C@@H]([C@@H](C)/C=C(C)/C=C\C=C/C(=O)N[C@@H](Cc2ccccc2)C(=O)N/C=C\C[C@H](C/C=C(\C)Cl)O[Si](C)(C)C(C)(C)C)OC1=O [Compound 29d] , what is its reported log10(IC (TGI))?
**A:** 0.14

**Q:** For COC1=CC[C@@H]([C@@H](C)/C=C(C)/C=C\C=C\C(=O)N[C@H](C(=O)N/C=C\C[C@H](C/C=C(\C)Cl)O[Si](C)(C)C(C)(C)C)C(C)(C)C)OC1=O [Compound 29e] , what is its reported log10(IC (TGI))?
**A:** 0.17

**Q:** For COC1=CC[C@@H]([C@@H](C)/C=C(C)/C=C\C=C/C(=O)N[C@@H](C(N)=O)C(C)(C)C)OC1=O [(15R)-7] , what is its reported log10(IC (TGI))?
**A:** 0.39

**Q:** For COC1=CC[C@@H]([C@@H](C)/C=C(C)/C=C\C=C/C(=O)N[C@H](C(=O)N/C=C\C[C@@H](O)C/C=C(\C)Cl)C(C)C)OC1=O [Compound 30c] , what is its reported log10(IC (TGI))?
**A:** -2.23

**Q:** For COC1=CC[C@@H]([C@@H](C)/C=C(C)/C=C\C=C/C(=O)N[C@H](C(=O)N/C=C\C[C@@H](C/C=C(\C)Cl)OC(N)=O)C(C)C)OC1=O [(21S)-5] , what is its reported log10(IC (TGI))?
**A:** -1.73

**Q:** For C/C=C\C[C@H](O)C/C=C\NC(=O)[C@@H](NC(=O)\C=C/C=C\C(C)=C\[C@H](C)[C@@H]1CC=C(OC)C(=O)O1)C(C)(C)C [Compound 30b] , what is its reported log10(IC (TGI))?
**A:** -0.29

**Q:** For "COC1=CC[C@@H]([C@@H](C)/C=C(C)/C=C\C=C/C(=O)N[C@H](C(=O)N/C=C\C[C@H](C/C=C(\C)Cl)OC(N)=O)C(C)C)OC1=O" , what is its reported log10(IC (TGI))?
**A:** -3.34

**Q:** For "COC1=CC[C@@H]([C@@H](C)/C=C(C)/C=C/C=C/C(=O)N[C@H](C(=O)N/C=C\C[C@H](C/C=C(\C)Cl)O[Si](C)(C)C(C)(C)C)C(C)(C)C)OC1=O" , what is its reported log10(IC (TGI))?
**A:** 0.75

**Q:** For "COC1=CC[C@@H]([C@@H](C)/C=C(C)/C=C\C=C/C(=O)N[C@H](C(N)=O)C(C)(C)C)OC1=O" , what is its reported log10(IC (TGI))?
**A:** -0.08

**Q:** For C/C(Cl)=C\C[C@H](O)C/C=C\NC(=O)[C@@H](NC(=O)\C=C/C=C\C(C)=C\[C@H](C)[C@@H]1CC=CC(=O)O1)C(C)(C)C [Compound 30f] , what is its reported log10(IC (TGI))?
**A:** 0.03

**Q:** For "C/C=C\C[C@@H](C/C=C\NC(=O)[C@@H](NC(=O)\C=C/C=C\C(C)=C\[C@H](C)[C@@H]1CC=C(OC)C(=O)O1)C(C)(C)C)OC(N)=O" , what is its reported log10(IC (TGI))?
**A:** -2.83

**Q:** For COC1=CCC(C(C)/C=C(C)/C=C/C=C\C(=O)NC(C(=O)N/C=C\CC(C/C=C(\C)Cl)OC(N)=O)C(C)C)OC1=O (stereo not shown) , what is its reported log10(IC (TGI))?
**A:** -2.49

**Q:** For COC1=CC[C@@H]([C@@H](C)/C=C(C)/C=C\C=C/C(=O)N[C@@H](Cc2ccccc2)C(=O)N/C=C\C[C@@H](O)C/C=C(\C)Cl)OC1=O [Compound 30d] , what is its reported log10(IC (TGI))?
**A:** -3.15

**Q:** For COC1=CC[C@@H]([C@@H](C)/C=C(C)/C=C\C=C\C(=O)N[C@H](C(=O)N/C=C\C[C@@H](O)C/C=C(\C)Cl)C(C)(C)C)OC1=O [Compound 30e] , what is its reported log10(IC (TGI))?
**A:** -1.18

**Q:** For "COC1=CC[C@@H]([C@@H](C)/C=C(C)/C=C\C=C/C(=O)N[C@@H](Cc2ccccc2)C(=O)N/C=C\C[C@H](C/C=C(\C)Cl)OC(N)=O)OC1=O" , what is its reported log10(IC (TGI))?
**A:** -3.82
